# target under test: CST (CTC1-STN1-TEN1) (human, UniProt Q2NKJ3;Q9H668;Q86WV5 1-1217;1-368;1-123)
# Sequence (Q2NKJ3 whole entry, chain 1 of 3): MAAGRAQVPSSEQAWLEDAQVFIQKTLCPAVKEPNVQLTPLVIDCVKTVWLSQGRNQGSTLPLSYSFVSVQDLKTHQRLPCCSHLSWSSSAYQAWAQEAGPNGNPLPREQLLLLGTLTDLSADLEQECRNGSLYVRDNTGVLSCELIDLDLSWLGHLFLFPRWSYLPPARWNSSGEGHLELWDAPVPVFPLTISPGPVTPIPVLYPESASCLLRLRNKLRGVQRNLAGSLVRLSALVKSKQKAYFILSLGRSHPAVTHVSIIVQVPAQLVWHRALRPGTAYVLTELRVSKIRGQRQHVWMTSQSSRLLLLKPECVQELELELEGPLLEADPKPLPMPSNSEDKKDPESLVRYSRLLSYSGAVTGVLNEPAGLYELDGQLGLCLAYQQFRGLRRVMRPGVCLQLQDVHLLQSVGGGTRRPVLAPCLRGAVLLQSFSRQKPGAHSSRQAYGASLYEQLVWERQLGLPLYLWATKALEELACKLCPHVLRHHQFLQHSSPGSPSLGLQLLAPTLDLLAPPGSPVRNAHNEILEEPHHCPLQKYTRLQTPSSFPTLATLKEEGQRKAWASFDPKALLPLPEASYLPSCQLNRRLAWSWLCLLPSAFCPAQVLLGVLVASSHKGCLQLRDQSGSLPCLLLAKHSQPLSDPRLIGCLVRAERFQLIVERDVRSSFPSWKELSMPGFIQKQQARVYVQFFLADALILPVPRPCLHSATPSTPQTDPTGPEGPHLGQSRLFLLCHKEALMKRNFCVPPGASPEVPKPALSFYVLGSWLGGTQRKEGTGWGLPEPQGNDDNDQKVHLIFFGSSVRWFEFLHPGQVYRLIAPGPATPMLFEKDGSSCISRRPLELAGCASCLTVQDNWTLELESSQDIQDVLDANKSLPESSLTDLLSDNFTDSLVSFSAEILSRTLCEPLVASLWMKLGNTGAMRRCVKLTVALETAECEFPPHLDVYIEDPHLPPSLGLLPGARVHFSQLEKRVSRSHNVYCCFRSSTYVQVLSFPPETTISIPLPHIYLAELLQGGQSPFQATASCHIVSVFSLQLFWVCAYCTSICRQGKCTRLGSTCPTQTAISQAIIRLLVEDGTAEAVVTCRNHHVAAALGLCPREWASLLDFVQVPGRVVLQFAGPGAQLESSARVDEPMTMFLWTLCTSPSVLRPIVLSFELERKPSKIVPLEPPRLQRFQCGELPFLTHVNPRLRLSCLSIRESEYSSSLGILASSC
# Sequence (Q9H668 whole entry, chain 2 of 3): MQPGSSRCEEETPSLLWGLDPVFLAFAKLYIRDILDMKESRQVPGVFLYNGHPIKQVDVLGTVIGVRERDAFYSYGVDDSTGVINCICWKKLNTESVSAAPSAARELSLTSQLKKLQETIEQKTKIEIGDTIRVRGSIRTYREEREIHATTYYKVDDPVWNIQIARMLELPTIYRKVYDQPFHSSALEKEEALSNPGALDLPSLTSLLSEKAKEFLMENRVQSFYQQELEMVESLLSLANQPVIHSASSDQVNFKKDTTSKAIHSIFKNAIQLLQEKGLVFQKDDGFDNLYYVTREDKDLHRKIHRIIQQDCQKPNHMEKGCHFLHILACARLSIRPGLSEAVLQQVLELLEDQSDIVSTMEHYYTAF
# Sequence (Q86WV5 whole entry, chain 3 of 3): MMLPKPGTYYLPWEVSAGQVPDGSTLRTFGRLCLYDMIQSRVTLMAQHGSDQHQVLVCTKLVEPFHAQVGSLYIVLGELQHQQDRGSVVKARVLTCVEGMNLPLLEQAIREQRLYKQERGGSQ
# procedure summary: fluorescence anisotropy; 200 mM LiCl; FA: 200 mM NaCl, KCl or LiCl, 20 mM HEPES pH 7.4, 1 mM DTT, 22-25 C, 375 or 750 pM oligo, Kd,app +/- SEM; EMSA: 20 mM HEPES pH 7.4, 200 mM KCl, 1 nM 32P oligo
# experimental conditions: protein: recombinant; tags: 2xFLAG N-term on CTC1; 6xHis N-term on STN1 and TEN1; copies: 1;1;1; label: 5' fluorescein; intramolecular G4 at 5' end, 18 nt 3' tail; linear in LiCl
measurement name: Kd (nM)
Give bare numbers, in nM.

Sure, the documented Kd for AGGGTTAGGGTTAGGGTTAGGGTGAGTGTGAGTGTGAGTG (structured_DNA) [Tel40 5' G4] is 1.53

The measurements presented in this section are drawn from paper PMC10250233.
